system: SARS-CoV-2 (BetaCov/Belgium/GHB-03021/2020); assay: microbe, parasite or virus in culture; assay type: cell-based; conditions: Severe acute respiratory syndrome coronavirus 2, 120 h, read-out: Maximum confluence reached (%)
Counter-ions that a name gives are not always drawn.
Could you please report measured Emax for the items listed next?

## Task Entry CC[C@@H](C(=O)[C@@H](C)[C@@H](O)[C@H](C)[C@@H]1O[C@@H]([C@@H](CC)C(=O)O)CC[C@@H]1C)[C@H]1O[C@]2(C=C[C@@H](O)[C@]3(CC[C@@](C)([C@H]4CC[C@](O)(CC)[C@H](C)O4)O3)O2)[C@H](C)C[C@@H]1C [Salinomycin (Procoxacin), Salinomycin] : reported Emax = ?
## Result 34.4%

## Task Entry O=C(O)Cc1cccc(OCCCN(Cc2cccc(C(F)(F)F)c2Cl)CC(c2ccccc2)c2ccccc2)c1 [GW-3965] : reported Emax = ?
## Result 38%

## Task Entry CC(=O)[C@]1(O)Cc2c(O)c3c(c(O)c2[C@@H](O[C@H]2C[C@H](N)[C@H](O)[C@H](C)O2)C1)C(=O)c1ccccc1C3=O [Idarubicin HCl] : reported Emax = ?
## Result 92.6%
